# Test system: LXRb:RXRa (NR concentration 270 nM, RXRa partner concentration 90 nM)
# Test: PBM binding z-score (relative to random genomic background probes); higher = stronger binding; sequences stand for … in GC…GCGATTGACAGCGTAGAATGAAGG
Recorded PBM binding z-score split into classes bucket A: < 0.2; bucket B: ≥ 0.2 and < 4; bucket C: ≥ 4

Query: Band for GCTCGGAGGACAAAGTCAGAGCTTTGTCCGTAGA ?
Response: bucket A

Query: Which category does the recorded PBM binding z-score put GCTAGTTGGTCAGTAAAAGGTCACACACCGGTCG in?
Response: bucket B

Query: Given TCATATAGGTAGACAGGTGAAAGTCCGTAAGTTA , name the class its PBM binding z-score places it in.
Response: bucket B

Query: Could you tell me which band CCGACAGGGGCATAAGGTTACCATAAGCCAGCCC belongs to?
Response: bucket B

Query: Category lookup for the sequence ACTTACGGGTCAACGAGGTTACAGCACGCGTATA
Response: bucket C

Query: Which category fits this record: ACAGACAGGTGATGAAGGGAACTCAGGCTATCAT
Response: bucket A

Query: Hello team, could you let me know which band the following sequence falls into: CCGACTGGGGCATAAGGTTCCCATAAGCCAGCCC
Response: bucket A

Query: Which category fits this record: CCTACTGGGCCATTCAGAGGTGATTGATCATATG
Response: bucket A

Query: Could you place CCGACTGGGGCAGAAAGGTTTCCATACCATCCGG in its proper category? Many thanks.
Response: bucket A

Query: Kindly state the category for this sequence: TAGCCTAGGTCATCCGGGCCAGTATAGTGTCGGC
Response: bucket B

Query: Lab log: AATACAGGGTCACAAGGCCAGAGTAGGTACGAAT — assign PBM binding z-score category
Response: bucket C

Query: Class (by measured PBM binding z-score) for CGTCCAGGGTCAGAGAGGTCAGTGAATGCCGAGT
Response: bucket C

Query: Hi, small favor: classify TTACCAAGATGAGCTGAGGTCGTTGATCCAACTC by its PBM binding z-score when you get a moment.
Response: bucket B

Query: Where would CGTCCACGGTCATAGGAGGTCAGTGAAGACAGAT land among the classes by reported PBM binding z-score?
Response: bucket B

Query: Class? Entry: ATAGGTAGGTTAGCTGGGGTCATTCAGACTAGGC
Response: bucket C

Query: Which category fits this record: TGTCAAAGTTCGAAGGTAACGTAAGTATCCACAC
Response: bucket B
